Assay: 14-day oral gavage toxicokinetic study in rats
Type: in vivo
Settings: female, rat, plasma, po, 5 mg/kg, oral 5 mg/kg, Study Day 14, Female
reported property: Tmax (h)
Write the answer as a number in h, unit excluded.

Q: # Tmax lookup, item `CN1CCN(c2ccc(Nc3ncc4cc5n(c4n3)C3(CCCCC3)CNC5=O)nc2)CC1`
Ans: 1

---

Test: 14-day oral gavage toxicokinetic study in rats
Assay type: in vivo
Conditions: female, rat, plasma, po, 15 mg/kg, Individual Compound 1 Plasma Concentration, rats, daily oral 15 mg/kg, Day 14, Female, 1 h
reported property: concentration at 1 h (ng/mL)
# output: bare number, implied unit ng/mL

Q: # concentration at 1 h lookup, item `CN1CCN(c2ccc(Nc3ncc4cc5n(c4n3)C3(CCCCC3)CNC5=O)nc2)CC1`
Ans: 1410

---

Test: Compound 1 PK dosed Days 1-5 with topotecan
Assay type: in vivo, human
Details: human, plasma, intravenous, Cohort 2 (Topotecan 1.25 mg/m^2); Compound 1 200 mg/m^2; Day 4; mean; read-out: Half-lives averaged (converted)
reported property: half-life (h)
Numeric answer only, unit h assumed.

Q: Query: half-life; subject: `CN1CCN(c2ccc(Nc3ncc4cc5n(c4n3)C3(CCCCC3)CNC5=O)nc2)CC1`
Ans: 8.95

---

Test: Topotecan PK following Compound 1 infusion
Type: in vivo, human
Conditions: human, plasma, intravenous, Topotecan 0.75 mg/m^2 (Cohort 3) with Compound 1 200 mg/m^2, Day 4, Median; read-out: Cmax
reported property: Cmax (ng/mL)
The response must be a number in ng/mL with no trailing unit.

Q: Request the reported Cmax associated with `CC[C@@]1(O)C(=O)OCc2c1cc1n(c2=O)Cc2cc3c(CN(C)C)c(O)ccc3nc2-1.Cl`
Ans: 24.5

---

Experiment: Topotecan PK following Compound 1 infusion
Format: in vivo, human
Conditions: human, plasma, intravenous, Topotecan […]^2 (Cohort 1) with Compound 1 200 mg/m^2, Day 1, Mean; read-out: Cmax
reported property: Cmax (ng/mL)
Entry rule: numbers only, all in ng/mL.

Q: Any idea what its Cmax is? The molecule is `CC[C@@]1(O)C(=O)OCc2c1cc1n(c2=O)Cc2cc3c(CN(C)C)c(O)ccc3nc2-1.Cl`
Ans: 69.5

---

Assay: 14-day oral gavage toxicokinetic study in rats
Type: in vivo
Conditions: male, rat, plasma, po, 15 mg/kg, Mean Compound 1 Plasma Concentration, rats, oral 15 mg/kg, Day 14, 24 h, Male
reported property: concentration at 24 h (ng/mL)
Form entry: value (ng/mL) — number only.

Q: Data request, read-out concentration at 24 h, for `CN1CCN(c2ccc(Nc3ncc4cc5n(c4n3)C3(CCCCC3)CNC5=O)nc2)CC1`
Ans: 60.6

---

Assay: 14-day oral gavage toxicokinetic study in rats
Format: in vivo
Settings: female, rat, plasma, po, 2 mg/kg, Compound 1 Plasma Concentration, rats, Female, Day 14, 2 h; daily oral 2 mg/kg (Group 7); individual animals
reported property: concentration at 2 h
Numeric answer plus unit only.

Q: Requested field: concentration at 2 h. Item: `CN1CCN(c2ccc(Nc3ncc4cc5n(c4n3)C3(CCCCC3)CNC5=O)nc2)CC1`
Ans: 224 ng/mL

---

Assay: 14-day oral gavage toxicokinetic study in rats
Assay type: in vivo
Conditions: male, rat, plasma, po, 5 mg/kg, Mean Compound 1 Plasma Concentration, rats, oral 5 mg/kg, Day 14, 8 h, Male
reported property: concentration at 8 h
In your response, the unit should come after the numeric value.

Q: Entry under review: `CN1CCN(c2ccc(Nc3ncc4cc5n(c4n3)C3(CCCCC3)CNC5=O)nc2)CC1` . Reported concentration at 8 h?
Ans: 273 ng/mL
